B1: NELF-E aptamer (parent)
chain: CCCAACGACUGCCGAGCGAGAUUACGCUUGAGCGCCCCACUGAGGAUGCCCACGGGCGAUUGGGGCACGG

# Variants of: B1
# protocol.summary: HiTS-RAP
# cond: with NELF-E (Drosophila)
pKd: −log10 of the molar value.
Recorded pKd values for a group of variants are listed next.
measured.attribute: pKd

- mutations: "C9G G18A"
  measured.number: 8.21
- mutations: "G7U U22G"
  measured.number: 8.21
- mutations: "G7U C17U"
  measured.number: 8.21
- mutations: "A5G U29G"
  measured.number: 8.21
- mutations: "U10C"
  measured.number: 8.34
- mutations: "A4G G54A"
  measured.number: 7.85
- mutations: "G7U G42A"
  measured.number: 7.23
- mutations: "A8G A52U"
  measured.number: 7.81
- mutations: "C25A"
  measured.number: 8.31
- mutations: "U10G G26A"
  measured.number: 8.38
- mutations: "G56U"
  measured.number: 8.28
- mutations: "U41G A46G"
  measured.number: 7.58
- mutations: "G14A U29C"
  measured.number: 8.33
- mutations: "U10G G62C"
  measured.number: 7.17
- mutations: "A8U U28C"
  measured.number: 8.06
- mutations: "U10G G56U"
  measured.number: 8.27
- mutations: "U28C U41G"
  measured.number: 7.92
- mutations: "A8U A24G"
  measured.number: 8.22
- mutations: "U22G U41A"
  measured.number: 7.09
- mutations: "G14A A15U"
  measured.number: 8.27
- mutations: "C13G U61G"
  measured.number: 8.11
- mutations: "G11U C57U"
  measured.number: 8.21
- mutations: "A8G U28A"
  measured.number: 8.38
- mutations: "A5C C6A"
  measured.number: 8.10
- mutations: "A21U"
  measured.number: 8.29
- mutations: "U23G G63A"
  measured.number: 7.69
- mutations: "C6G U61A"
  measured.number: 7.41
- mutations: "U10G G62U"
  measured.number: 8.16
- mutations: "A8U U28G"
  measured.number: 8.15
- mutations: "A8U G26A"
  measured.number: 8.38
- mutations: "A8G G65A"
  measured.number: 8.27
- mutations: "A24G U28A"
  measured.number: 8.47
- mutations: "C6G U60A"
  measured.number: 7.96
- mutations: "U10G C57U"
  measured.number: 8.25
- mutations: "U23G C66U"
  measured.number: 8.22
- mutations: "C33U G54A"
  measured.number: 8.21
- mutations: "A8G A21U"
  measured.number: 8.29
- mutations: "A39U C66U"
  measured.number: 7.67
- mutations: "G14U G63U"
  measured.number: 7.89
- mutations: "U10A A19G"
  measured.number: 8.18
- mutations: "C13G C51U"
  measured.number: 8.20
- mutations: "G20U A24G"
  measured.number: 8.16
- mutations: "G7U C9U"
  measured.number: 8.19
- mutations: "G14U G20U"
  measured.number: 8.16
- mutations: "C13G G48U"
  measured.number: 8.16
- mutations: "C12G A52G"
  measured.number: 8.29
- mutations: "C9G"
  measured.number: 8.29
- mutations: "U22G G55U"
  measured.number: 8.10
- mutations: "U41G G65A"
  measured.number: 8.16
- mutations: "U29G G42U"
  measured.number: 7.98
- mutations: "C6G A39G"
  measured.number: 8.01
- mutations: "G7U G44U"
  measured.number: 7.78
- mutations: "C13U C17G"
  measured.number: 8.29
- mutations: "A4G C6U"
  measured.number: 8.22
- mutations: "A5U U47G"
  measured.number: 8.15
- mutations: "A4G A52G"
  measured.number: 8.34
- mutations: "A4G C36A"
  measured.number: 8.10
- mutations: "A15U C17G"
  measured.number: 8.15
- mutations: "A8U C53U"
  measured.number: 8.44
- mutations: "A24G G65U"
  measured.number: 8.22
- mutations: "U29G A31U"
  measured.number: 8.22
- mutations: "A5G U10A"
  measured.number: 8.33
- mutations: "C13G G14C"
  measured.number: 8.11
- mutations: "G7U U10G"
  measured.number: 8.25
- mutations: "A8G A52G"
  measured.number: 8.36
- mutations: "U29A U41C"
  measured.number: 7.10
- mutations: "A19G A43G"
  measured.number: 8.06
